// log10(GI50) lookup, one value per entry
- Test system: K-562
- EXPERIMENT NOTES: Inhibition of cells growth by colorimetric assay (SRB)
- EXPERIMENTAL CONDITIONS: Homo sapiens, K562, 48 h, read-out: K562 GI50
Response schema: value (number) is log10 of GI50 in units of nM.

Form field log10(GI50) for item C=CCN1[C@@H]2c3c(cc(C)c(OC)c3O)C[C@H]1[C@H](C#N)N1C2[C@@H]2SC[C@]3(NCCc4cc(OC(=O)OC(C)(C)C)c(OC)cc43)C(=O)OC[C@H]1c1c3c(c(C)c(OC(=O)/C=C/c4ccccc4)c12)OCO3 (some centres unmarked) [compound 47] on K-562: 2.24

Fill in: K-562 log10(GI50) for COc1cc2c(cc1O)CCN[C@]21CS[C@@H]2c3c(OC(C)=O)c(C)c4c(c3[C@H](CNC1=O)N1C2[C@H]2c3c(cc(C)c(OC)c3O)C[C@@H]([C@@H]1C#N)N2C)OCO4 (some centres unmarked) [compound 76] = 1.43

COc1cc2c(cc1O)CCN[C@]21C[S+]([O-])[C@@H]2c3c(OC(C)=O)c(C)c4c(c3[C@H](COC1=O)N1C2C2c3c(cc(C)c(OC)c3O)C[C@@H]([C@@H]1O)N2C)OCO4 (some centres unmarked) [Et-759B] on K-562 gives log10(GI50) = 0.78

The reported log10(GI50) value, K-562, for COc1cc2c(cc1O)CCN[C@]21CS[C@@H]2c3c(OC(C)=O)c(C)c4c(c3[C@H](COC1=O)N1C[C@@H]3Cc5cc(C)c(OC)c(O)c5C(C21)N3C)OCO4 (some centres unmarked) [Et-745] reads 2.95

Query C=CCN1[C@@H]2c3c(cc(C)c(OC)c3O)C[C@H]1[C@H](O)N1C2[C@@H]2SCC(NC(C)=O)C(=O)OC[C@H]1c1c3c(c(C)c(OC(C)=O)c12)OCO3 (some centres unmarked) [compound 41] on K-562; log10(GI50) returned: 1.31

----------
Recorded CC50 for the following compounds
- System: DU-145
- EXPERIMENT NOTES: Inhibition of cells growth by colorimetric assay (SRB)
- EXPERIMENTAL CONDITIONS: Homo sapiens, DU-145, 48 h, read-out: DU145 LC50
Form entry: value (µM) — number only.

// below: answered compounds
COc1c(C)cc2c(c1O)[C@H]1N[C@@H](C2)[C@H](O)N2C1[C@@H]1SCC(=O)C(=O)OC[C@H]2c2c3c(c(C)c(OC(C)=O)c21)OCO3 (stereo partly shown) [compound 43] : 2.92
COc1cc2c(cc1O)CCN[C@]21CS[C@@H]2c3c(OC(C)=O)c(C)c4c(c3[C@H](CNC1=O)N1C2[C@H]2c3c(cc(C)c(OC)c3O)CC([C@@H]1O)N2C)OCO4 (stereo partly shown) [compound 77] : 13.1
COc1c(C)cc2c(c1O)[C@H]1N[C@@H](C2)[C@H](O)N2C1[C@@H]1SC[C@]3(NCCc4c3[nH]c3ccc(C)cc43)C(=O)OC[C@H]2c2c3c(c(C)c(OC(C)=O)c21)OCO3 (stereo partly shown) [compound 66] : 3.86
COc1c(C)cc2c(c1OC(=O)/C=C/c1ccccc1)[C@H]1N[C@@H](C2)[C@H](O)N2C1[C@@H]1SCC(NC(=O)C(F)(F)F)C(=O)OC[C@H]2c2c3c(c(C)c(OC(C)=O)c21)OCO3 (stereo partly shown) [compound 40] : 1.63
COc1c(C)cc2c(c1O)[C@H]1N[C@@H](C2)[C@H](C#N)N2C1[C@@H]1SC[C@]3(NCCc4c3[nH]c3ccc(C)cc43)C(=O)OC[C@H]2c2c3c(c(C)c(OC(C)=O)c21)OCO3 (stereo partly shown) [compound 62] : 3.59

CC50 measured on C=CCN1[C@@H]2c3c(cc(C)c(OC)c3O)C[C@H]1[C@H](C#N)N1C2[C@@H]2SC[C@]3(NCCc4c3[nH]c3ccc(O)cc43)C(=O)OC[C@H]1c1c3c(c(C)c(OC(C)=O)c12)OCO3 (stereo partly shown) [compound 57] = 12.2

Documented CC50 of COc1cc2c(cc1O)CCN[C@]21CS[C@@H]2c3c(OC(C)=O)c(C)c4c(c3[C@H](COC1=O)N1[C@@H]2[C@H]2c3c(cc(C)c(OC)c3O)C[C@@H]([C@@H]1O)N2C)OCO4 [Et-743, ecteinascidin 743, reference compound] : 4.33

Measured CC50 of C=CCN1[C@@H]2c3c(cc(C)c(OC)c3OC(=O)OC(C)(C)C)C[C@H]1[C@H](C#N)N1C2[C@@H]2SC[C@]3(NCCc4cc(OC(=O)OC(C)(C)C)c(OC)cc43)C(=O)OC[C@H]1c1c3c(c(C)c(OC(C)=O)c12)OCO3 (stereo partly shown) [compound 45] : 10
